// data source = paper PMC9884426

Assay: Plasma pharmacokinetics of oral NMP by LCMSMS
Format: in vivo, human
Conditions: human, plasma, po, 50 mg, oral 50 mg; average of N = 5 profiles; plasma; read-out: AUC, Average
Protocol: Blood samples were taken from patients before NMP and at one, two, four, eight and 24 h post dose. Plasma samples (20 μl) were prepared by adding five volumes of methanol containing deuterated internal standard. The samples were vortexed then centrifuged, and the supernatant was transferred to a vial and injected onto the LCMSMS. The LCMSMS system consisted of a Shimadzu UHPLC with a SCIEX 6500QTrap, a KinetexC18 (3 × 50 mm, 2.6 μm) column and using a gradient of 0.1% formic acid and acetonitrile. […]
readoutKind: AUC (ng·h/mL)
Express it in ng·h/mL; write the number only.

[ask] Given the entry CN1CCCC1=O [NMP, N-methyl-2-pyrrolidone] , report its measured AUC.
[reply] 2170

----------
experiment: Plasma pharmacokinetics of oral NMP by LCMSMS; assay type: in vivo, human; conditions: human, plasma, po, 300 mg, oral 300 mg; individual profiles (PMC-09, MON-10, MON-11); plasma; read-out: Cmax
readoutKind: Cmax (ng/mL)
Return type: number; implicit unit ng/mL.

[ask] Give the measured Cmax of CN1CCCC1=O .
[reply] 10500

----------
assay: Plasma pharmacokinetics of oral NMP by LCMSMS; format: in vivo, human; settings: human, plasma, po, 600 mg, oral 600 mg; patient MON-11 occasion 4; plasma; read-out: Half-life (converted)
readoutKind: half-life (h)
Number in h, nothing else.

[ask] Please report the recorded half-life for CN1CCCC1=O .
[reply] 2.17

----------
test: Plasma pharmacokinetics of oral NMP by LCMSMS; type: in vivo, human; conditions: human, plasma, po, 300 mg, oral 300 mg; average of N = 3 profiles; plasma; read-out: Tmax, Average
readoutKind: Tmax (min)
Respond with the bare value in min.

[ask] Recorded Tmax of CN1CCCC1=O , please.
[reply] 40.2

----------
assay: Plasma pharmacokinetics of oral NMP by LCMSMS; assay type: in vivo, human; conditions: human, plasma, po, 700 mg, oral 700 mg; patient MON-11 occasion 5; plasma; read-out: Cmax
readoutKind: Cmax (ng/mL)
Write the number in ng/mL without appending the unit.

[ask] Need Cmax of CN1CCCC1=O [NMP, N-methyl-2-pyrrolidone] , thanks.
[reply] 12400

----------
Assay: Plasma pharmacokinetics of oral NMP by LCMSMS
Format: in vivo, human
Settings: human, plasma, po, 600 mg, oral 600 mg; patient MON-11 occasion 4; plasma; read-out: AUC
Procedure: Blood samples were taken from patients before NMP and at one, two, four, eight and 24 h post dose. Plasma samples (20 μl) were prepared by adding five volumes of methanol containing deuterated internal standard. The samples were vortexed then centrifuged, and the supernatant was transferred to a vial and injected onto the LCMSMS. The LCMSMS system consisted of a Shimadzu UHPLC with a SCIEX 6500QTrap, a KinetexC18 (3 × 50 mm, 2.6 μm) column and using a gradient of 0.1% formic acid and acetonitrile. […]
readoutKind: AUC (ng·h/mL)
Answer in ng·h/mL, number only, no unit symbol.

[ask] Any idea what its AUC is? The molecule is CN1CCCC1=O [NMP, N-methyl-2-pyrrolidone]
[reply] 56700

----------
assay: Plasma pharmacokinetics of oral NMP by LCMSMS; format: in vivo, human; conditions: human, plasma, po, 400 mg, oral 400 mg; average of N = 2 profiles; plasma; read-out: Tmax, Average
readoutKind: Tmax (min)
Your answer should be a plain number; it is taken to be in min.

[ask] For CN1CCCC1=O , what is its reported Tmax?
[reply] 30
